- Assayed System: PaCAγ1 (Pseudomonas aeruginosa, UniProt Q9HT34)
- Measurement Notes: biochemical
- Reported Conditions: Stopped-Flow assay, mean from 3 different assays
Test Readout: Ki (nM)
Numbers only, in nM.

INSERT INTO measurements (molecule, test_readout, observed_result) VALUES
  ('NCc1ccc(S(N)(=O)=O)cc1 [Compound 3]', 'Ki', 132);

Give measured Ki for every item shown.
1. NS(=O)(=O)NCCNc1nonc1/C(=N\c1ccc(F)c(Br)c1)NO [EPC]
2. Nc1ccc(S(=O)(=O)Nc2ccc(S(N)(=O)=O)cc2)cc1 [Compound 22]

Outgoing:
[5320, 386]

====

- Assayed System: PaCAγ1 (Pseudomonas aeruginosa)
- Measurement Notes: biochemical
- Reported Conditions: Stopped-Flow assay, mean from 3 different assays
For each of the compounds below, state its pKi.
Numbers only, as −log10 of the molar value.

Example results:
INSERT INTO results (compound, test_readout, observed_result) VALUES
  ('NC(N)=Nc1nc(CSCC/C(N)=N/S(N)(=O)=O)cs1 [FAM]', 'pKi', 5.57),
  ('Cc1ccc(S(N)(=O)=O)cc1 [Compound 6]', 'pKi', 6.58),
  ('NS(=O)(=O)c1cccc(S(N)(=O)=O)c1 [Compound 5]', 'pKi', 6.25),
  ('NS(=O)(=O)c1ccc(CO)cc1 [Compound 16]', 'pKi', 6.27),
  ('Cn1nc(S(N)(=O)=O)sc1=N [Compound 14]', 'pKi', 7.01),
  ('NS(=O)(=O)c1ccc(CCO)cc1 [Compound 17]', 'pKi', 6.38),
  ('Nc1cc(C(F)(F)F)c(S(N)(=O)=O)cc1S(N)(=O)=O [Compound 11]', 'pKi', 5.44),
  ('Nc1cc(Cl)c(S(N)(=O)=O)cc1S(N)(=O)=O [Compound 12]', 'pKi', 5.22);

Give measured pKi for every item shown.
1. NS(=O)(=O)c1cc(Cl)cc(Cl)c1O [Compound 10]
2. NS(=O)(=O)c1ccc(O)cc1 [Compound 15]
3. Nc1ccc(S(N)(=O)=O)cc1F [Compound 7]
4. Nc1ccc(S(=O)(=O)NCCc2ccc(S(N)(=O)=O)cc2)cc1 [Compound 24]
5. Nc1nnc(S(N)(=O)=O)s1 [Compound 13]
6. CC(=O)/N=c1/sc(S(N)(=O)=O)nn1C [MZA]
7. Nc1cccc(S(N)(=O)=O)c1 [Compound 1]
8. NS(=O)(=O)c1cc2c(cc1Cl)NCNS2(=O)=O [HTC]

Outgoing:
1. 5.01
2. 6.68
3. 6.49
4. 6.23
5. 7.14
6. 7.16
7. 6.72
8. 5.18

Give measured pKi for every item shown.
1. NS(=O)(=O)c1cc(Cl)c(Cl)c(S(N)(=O)=O)c1 [DCP]
2. NS(=O)(=O)c1ccc(CCNS(=O)(=O)c2ccc([N+](=O)[O-])cc2CO)cc1 [Compound 21]
3. Nc1ccc(S(=O)(=O)NCc2ccc(S(N)(=O)=O)cc2)cc1 [Compound 23]

Outgoing:
1. 5.25
2. 6.25
3. 6.08

Give measured pKi for every item shown.
1. Nc1ccc(S(N)(=O)=O)cc1Cl [Compound 8]
2. NS(=O)(=O)Cc1noc2ccccc12 [ZNS]
3. NS(=O)(=O)c1ccc(C(=O)O)cc1 [Compound 18]

Outgoing:
[6.16, 5.38, 6.10]

====

- Assayed System: hCA II (Homo sapiens)
Test Readout: Ki (nM)
One number for each entry, in nM.

INSERT INTO assay_data (smiles_structure, assayed_system, observed_result) VALUES
  ('NC(N)=Nc1nc(CSCC/C(N)=N/S(N)(=O)=O)cs1', 'hCA II (Homo sapiens)', 58);

Turning to the following compound.
Incoming: Field request: Ki | item: NS(=O)(=O)NCCNc1nonc1/C(=N\c1ccc(F)c(Br)c1)NO
Outgoing: 917

====

- Assayed System: hCA I (Homo sapiens)
- Sequence (P00915 whole entry): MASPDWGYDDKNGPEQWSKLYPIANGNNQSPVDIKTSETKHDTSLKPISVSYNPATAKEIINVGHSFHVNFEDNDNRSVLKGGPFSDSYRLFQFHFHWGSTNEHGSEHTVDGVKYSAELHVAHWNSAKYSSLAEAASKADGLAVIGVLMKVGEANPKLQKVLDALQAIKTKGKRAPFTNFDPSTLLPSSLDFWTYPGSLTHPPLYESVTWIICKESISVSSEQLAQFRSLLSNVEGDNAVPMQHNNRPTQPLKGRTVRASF
- Measurement Notes: Stopped-flow CO2 hydration inhibition assay, hCA I
- Type: biochemical
Test Readout: pKi
Numbers only, as −log10 of the molar value.

Incoming: Field request: pKi | item: Cc1ccc(S(N)(=O)=O)cc1
Outgoing: 4.68

====

For each of the molecules below, state its pKi.
- Assayed System: PaCAγ1 (Pseudomonas aeruginosa, UniProt Q9HT34)
- Measurement Notes: biochemical
- Reported Conditions: Stopped-Flow assay, mean from 3 different assays
Answers are plain numbers, as −log10 of the molar value.

Example results:
INSERT INTO assay_data (molecule, observed_result) VALUES
  ('Nc1ccc(S(=O)(=O)Nc2nnc(S(N)(=O)=O)s2)cc1 [Compound 20]', 6.61),
  ('NS(=O)(=O)c1ccc(N2CCCCS2(=O)=O)cc1 [SLT]', 6.45),
  ('NS(=O)(=O)c1nnc(NS(=O)(=O)c2ccccc2)s1 [BZA]', 6.54);

Give measured pKi for every item shown.
1. O=C1NS(=O)(=O)c2ccccc21 [SAC]
2. NS(=O)(=O)c1ccc(S(=O)(=O)Nc2cccc3c(Cl)c[nH]c23)cc1 [IND]
3. CCN[C@H]1CN(CCCOC)S(=O)(=O)c2sc(S(N)(=O)=O)cc21 [BRZ]
4. Nc1nccc(Nc2ccc(S(N)(=O)=O)cc2)n1 [Compound 19]
5. Nc1ccc(S(N)(=O)=O)cc1 [Compound 2]
6. Nc1ccc(S(N)(=O)=O)cc1Br [Compound 9]

Outgoing:
4.86
6.34
6.51
5.88
6.81
5.46
